# TARGET_SYSTEM: Proto-oncogene tyrosine-protein kinase receptor Ret [M918T] (Homo sapiens, UniProt P07949, M918T)
# Sequence (P07949 29-1114 M918T limits assumed): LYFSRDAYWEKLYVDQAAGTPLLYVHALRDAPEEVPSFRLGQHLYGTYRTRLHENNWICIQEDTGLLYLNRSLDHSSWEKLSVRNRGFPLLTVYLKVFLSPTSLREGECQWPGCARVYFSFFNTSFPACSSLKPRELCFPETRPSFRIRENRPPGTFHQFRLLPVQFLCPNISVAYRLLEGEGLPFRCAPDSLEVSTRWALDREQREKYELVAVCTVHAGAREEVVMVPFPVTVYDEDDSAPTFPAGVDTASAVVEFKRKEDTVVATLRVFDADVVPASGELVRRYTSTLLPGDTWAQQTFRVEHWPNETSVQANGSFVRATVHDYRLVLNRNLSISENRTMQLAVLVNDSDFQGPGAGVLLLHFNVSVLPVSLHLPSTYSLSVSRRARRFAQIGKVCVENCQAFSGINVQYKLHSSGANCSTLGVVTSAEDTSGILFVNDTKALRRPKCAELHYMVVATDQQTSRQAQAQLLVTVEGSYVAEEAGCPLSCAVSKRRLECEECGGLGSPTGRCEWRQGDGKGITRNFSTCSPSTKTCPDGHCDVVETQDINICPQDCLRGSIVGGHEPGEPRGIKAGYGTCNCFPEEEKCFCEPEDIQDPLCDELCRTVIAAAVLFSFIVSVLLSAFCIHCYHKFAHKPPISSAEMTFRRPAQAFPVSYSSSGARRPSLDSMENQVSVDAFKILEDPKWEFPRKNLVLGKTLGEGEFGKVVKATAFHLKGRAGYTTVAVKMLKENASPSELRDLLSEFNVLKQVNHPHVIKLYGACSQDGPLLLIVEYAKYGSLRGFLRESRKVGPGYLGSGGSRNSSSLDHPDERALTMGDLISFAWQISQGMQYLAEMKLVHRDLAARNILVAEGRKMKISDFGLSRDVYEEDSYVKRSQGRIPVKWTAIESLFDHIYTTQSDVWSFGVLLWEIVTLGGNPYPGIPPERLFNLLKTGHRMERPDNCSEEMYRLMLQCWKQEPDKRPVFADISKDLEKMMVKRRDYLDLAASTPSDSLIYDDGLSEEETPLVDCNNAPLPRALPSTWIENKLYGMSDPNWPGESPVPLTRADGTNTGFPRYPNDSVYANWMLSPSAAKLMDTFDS
# METHOD: Inhibitory Activity Assay
READOUT_TYPE: IC50 (nM)
The reply should contain only the number, in nM.

Challenge: # input compound: C#Cc1cccc(C(=O)NC2CCN(c3ccc(-c4cc(-c5cnn(C)c5)cn5ncc(C#N)c45)cn3)CC2)c1 [US12209085, Example 268] ; wanted: its IC50
Response given: 1.92

* * *

# TARGET_SYSTEM: Proto-oncogene tyrosine-protein kinase receptor Ret [V804L] (Homo sapiens, UniProt P07949, V804L)
# Sequence (P07949 29-1114 V804L limits assumed): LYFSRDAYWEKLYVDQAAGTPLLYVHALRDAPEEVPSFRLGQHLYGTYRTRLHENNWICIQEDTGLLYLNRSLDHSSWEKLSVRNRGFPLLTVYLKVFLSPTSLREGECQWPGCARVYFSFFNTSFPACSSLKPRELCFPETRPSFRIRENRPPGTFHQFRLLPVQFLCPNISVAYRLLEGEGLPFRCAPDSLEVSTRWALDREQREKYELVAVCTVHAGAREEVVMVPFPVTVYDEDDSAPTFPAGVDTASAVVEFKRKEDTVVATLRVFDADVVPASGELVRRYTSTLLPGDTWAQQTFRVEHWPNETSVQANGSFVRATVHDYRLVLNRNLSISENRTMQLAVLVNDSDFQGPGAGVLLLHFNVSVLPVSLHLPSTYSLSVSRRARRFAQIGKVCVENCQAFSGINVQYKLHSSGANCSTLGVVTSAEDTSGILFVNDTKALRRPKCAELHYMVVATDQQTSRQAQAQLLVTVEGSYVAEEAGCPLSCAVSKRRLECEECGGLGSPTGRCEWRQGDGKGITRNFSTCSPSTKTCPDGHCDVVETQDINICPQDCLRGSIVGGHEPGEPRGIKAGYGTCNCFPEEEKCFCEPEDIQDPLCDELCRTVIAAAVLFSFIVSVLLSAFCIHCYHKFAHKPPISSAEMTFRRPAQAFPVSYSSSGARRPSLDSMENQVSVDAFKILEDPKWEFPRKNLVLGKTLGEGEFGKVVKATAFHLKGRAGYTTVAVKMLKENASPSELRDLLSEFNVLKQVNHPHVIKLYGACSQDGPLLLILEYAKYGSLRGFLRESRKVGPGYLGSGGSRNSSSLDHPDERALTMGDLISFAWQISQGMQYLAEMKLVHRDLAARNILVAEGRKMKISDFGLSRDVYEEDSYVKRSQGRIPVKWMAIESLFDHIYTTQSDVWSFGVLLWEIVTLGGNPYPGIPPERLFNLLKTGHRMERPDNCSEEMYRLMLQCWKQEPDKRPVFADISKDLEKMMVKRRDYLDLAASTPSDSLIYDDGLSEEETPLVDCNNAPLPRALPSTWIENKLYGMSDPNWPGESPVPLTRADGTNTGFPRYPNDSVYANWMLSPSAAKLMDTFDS
# METHOD: Inhibitory Activity Assay
READOUT_TYPE: pIC50
pIC50 here is simply -log10 of the concentration when that concentration is written in mol/L.

Challenge: # input molecule: C#Cc1cccc(C(=O)NC2CCN(c3ccc(-c4cc(-c5cnn(C)c5)cn5ncc(C#N)c45)cn3)CC2)c1 ; wanted: its pIC50
Response given: 8.63
